Test system: A549/ATCC NSCLC
Assay: NCI-60 one-dose screen, 48 h
Conditions: 10 µM
This is part of a sample that, as a whole, favours compounds with a hit. Of some 83,000 tested, about 20% had one in any assay. The source made the active and inactive calls. Rule for the calls: active = growth percent below 10; inactive = the rest.
Classes used: class 1 = active, class 0 = inactive

COMPOUND	LABEL
CC(=O)O[C@@H]1[C@@H]2O[C@H]2[C@@](C)(O)C(=O)[C@@H](C)C/C=C/[C@H]2[C@@H]3O[C@]3(C)[C@@H](C)C3[C@H](Cc4ccccc4)NC(=O)[C@@]312 (some centres not stated)	class 0
CC1=C[C@H]2O[C@@H]3C[C@H]4OC(=O)/C=C\C=C\[C@H]([C@@H](C)O)OCC[C@@H](C)[C@H](O)C(=O)OC[C@@]2(CC1)[C@]4(C)[C@]31CO1	class 1
CN(CCF)/N=N/c1nc[nH]c1C(N)=O	class 0
CC1=C[C@H]2O[C@@H]3C[C@@H](O)[C@](C)([C@@]2(C)CC1)[C@@]31CO1	class 0
C/C=C\C(=O)O[C@@H]1CC2O[C@@H]3C=C(C)C(=O)C[C@]3(C)[C@]1(C)[C@]21CO1	class 1
CC(C)=CCc1c2c(c(O)c3c1O[C@]14C(=C[C@@H]5C[C@H]1C(C)(C)O[C@@]4(C/C=C(/C)C(=O)O)C5=O)C3=O)C=CC(C)(C)O2	class 1
COc1cc2c(O[C@@H]3OC[C@H](O)[C@H](O)[C@H]3O)c3c(c(-c4ccc5c(c4)OCO5)c2cc1OC)C(=O)OC3	class 0
